Test system: P. falciparum 3D7 growth, pLDH absorbance
Assay: blood-stage malaria parasite growth potency – strain 3D7, dose response (AID 2305)
Field: class. Source value: IC50. Ranges: b0 = under 500 nM, b1 = from 500 nM up to 900 nM, b2 = 900 nM and over

Exercise: read the entry COc1ccccc1C1CCN(C2CCC(NC(=O)/C=C/c3cc(F)c(F)cc3F)CC2)CC1 (centres undefined) and state which class it falls under.
b2

Determine which band this compound sits in: COc1cc(F)c2ncc(F)c(CCN3C[C@H](CNCc4ccc5c(n4)NC(=O)CS5)[C@H](O)C3)c2c1
b0

Please let me know in which category the item c1cc(CN2CCC(CCN3CCCCC3)CC2)cc(-c2csc(-c3nc4ccccc4[nH]3)c2)c1 belongs.
b0

The entry to classify is O=C(Nc1cncc(NC(=O)c2ccc(Cl)c(Cl)c2)c1)c1ccc(Cl)c(Cl)c1 ; which class holds it?
b1

Hi there! Could you help me figure out the category for O=C(NC1CCC(CN2CCC(c3c[nH]c4ccccc34)CC2)CC1)c1cc2ccccc2o1 (centres undefined) please?
b2

Which bin, given its IC50, does CCCCCc1cnc2nc(N)nc(N)c2c1C occupy?
b0

Sort into band: Cc1cccc2[nH]c(-c3cccc(-c4cccc(C(=O)NCCN5CCCC5)c4)c3)nc12
b1

Dear colleague, I would appreciate it if you could identify the bin for Nc1nc(N)c2c(CCc3ccc4ccccc4c3)cccc2n1 and reply at your convenience.
b1

====

Test system: P. falciparum 3D7 growth, pLDH absorbance
Test: blood-stage malaria parasite growth potency – strain 3D7, dose response (AID 2305)
property_label: IC50 (nM)
Answer with a number only, understood to be in nM.

Give the reported IC50 for CN(C)C(CNc1ncnc2cc(Cl)ccc12)Cc1ccccc1 (centres undefined) (system: P. falciparum 3D7 growth, pLDH absorbance).
870

Write down the reported IC50 of O=C(NCCCCN1CCC(c2ccc3c(c2OCCO)CCCC3)CC1)c1sc(-c2ccc(C(F)(F)F)cc2)nc1CO , test system: P. falciparum 3D7 growth, pLDH absorbance.
1050

# returns recorded IC50 (system: P. falciparum 3D7 growth, pLDH absorbance) for c1ccc2c(c1)CN(CC1CCOCC1)CC1(CCN(Cc3c[nH]c4cnccc34)CC1)O2
1550

IC50 of O=C(Nc1ccon1)c1cc(-c2cccnc2)nc2ccc(Br)cc12 on P. falciparum 3D7 growth, pLDH absorbance?
740

Form field - read-out: IC50; system: P. falciparum 3D7 growth, pLDH absorbance; submitted item: CCn1c(CN2CCC(C)CC2)nc2cc(NC(=O)c3cccs3)ccc21
560

Which measured IC50 belongs to Cc1cccc(Cn2c(C(N)=O)nn(-c3ccc([N+](=O)[O-])cc3C#N)c2=S)c1 , tested on P. falciparum 3D7 growth, pLDH absorbance?
730

Item: O=C(Cc1c(-c2ccccc2)[nH]c2ccccc12)NC1CCC(CN2CCC(c3c[nH]c4ccccc34)CC2)CC1 (centres undefined) Test system: P. falciparum 3D7 growth, pLDH absorbance Read-out: IC50 Value: ?
480

State its IC50 on P. falciparum 3D7 growth, pLDH absorbance: COc1ccc(CN(C)CCCOc2ccc(NC(=O)c3cccc4c(=O)c5cccc(F)c5[nH]c34)cc2)cc1OC
640

Which IC50 is reported with P. falciparum 3D7 growth, pLDH absorbance for this entry: CC1(C)N=C(N)NC(Nc2ccc(F)c(F)c2)=N1 ?
50
